Each recorded value in this set is attributed to paper PMC6853638.

molecular target: MET channel (Mus musculus, UniProt Q8R4P5); construct: the basilar membrane with hair cells was acutely dissected from neonatal mice; endogenous in cells; host or cells: outer hair cells of acutely dissected neonatal mouse cochlea; test: MET current (IMET) inhibition by blockers, whole-cell voltage clamp of OHCs with glass-probe hair-bundle deflection; assay type: cell-based
Sequence (Q8R4P5 whole entry): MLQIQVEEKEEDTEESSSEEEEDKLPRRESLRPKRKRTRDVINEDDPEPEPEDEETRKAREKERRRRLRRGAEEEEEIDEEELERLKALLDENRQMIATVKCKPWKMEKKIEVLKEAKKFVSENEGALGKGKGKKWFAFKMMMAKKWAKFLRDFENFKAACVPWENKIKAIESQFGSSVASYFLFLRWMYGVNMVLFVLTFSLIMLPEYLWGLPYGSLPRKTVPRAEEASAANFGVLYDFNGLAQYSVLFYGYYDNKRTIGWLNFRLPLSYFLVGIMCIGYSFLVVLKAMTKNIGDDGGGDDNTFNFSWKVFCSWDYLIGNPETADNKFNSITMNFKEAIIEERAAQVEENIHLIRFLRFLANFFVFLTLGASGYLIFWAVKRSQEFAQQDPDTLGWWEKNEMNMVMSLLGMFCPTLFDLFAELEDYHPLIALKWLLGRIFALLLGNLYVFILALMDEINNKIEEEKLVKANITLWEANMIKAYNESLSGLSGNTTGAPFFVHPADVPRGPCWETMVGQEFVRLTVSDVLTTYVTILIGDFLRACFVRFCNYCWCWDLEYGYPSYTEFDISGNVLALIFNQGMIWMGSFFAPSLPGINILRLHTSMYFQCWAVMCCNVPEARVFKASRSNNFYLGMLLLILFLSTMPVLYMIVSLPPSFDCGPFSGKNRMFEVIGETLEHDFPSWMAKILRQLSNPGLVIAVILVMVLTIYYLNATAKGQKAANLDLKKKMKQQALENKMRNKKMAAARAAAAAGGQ
Sequence (Q4KL25 whole entry partner): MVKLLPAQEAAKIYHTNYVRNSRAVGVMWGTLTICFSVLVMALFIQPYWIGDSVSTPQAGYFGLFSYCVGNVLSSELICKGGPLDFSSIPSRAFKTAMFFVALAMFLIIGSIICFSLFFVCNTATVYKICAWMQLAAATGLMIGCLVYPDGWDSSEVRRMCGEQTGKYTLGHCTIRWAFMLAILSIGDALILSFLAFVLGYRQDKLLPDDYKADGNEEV
Sequence (Q8K467 29-153 partner): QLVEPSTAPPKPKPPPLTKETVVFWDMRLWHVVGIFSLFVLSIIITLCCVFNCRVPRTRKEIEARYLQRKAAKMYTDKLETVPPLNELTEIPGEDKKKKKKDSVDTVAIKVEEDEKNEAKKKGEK
Sequence (Q9Z309 whole entry partner): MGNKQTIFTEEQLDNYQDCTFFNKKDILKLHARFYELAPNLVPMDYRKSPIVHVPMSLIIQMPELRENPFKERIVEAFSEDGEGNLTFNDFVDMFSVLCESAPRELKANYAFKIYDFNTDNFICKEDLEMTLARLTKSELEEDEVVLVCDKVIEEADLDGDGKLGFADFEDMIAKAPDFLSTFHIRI
MEASUREMENT_LABEL: IC50 (µM)

COc1cc2c3cc1Oc1cc(ccc1O)C[C@@H]1c4c(cc(OC)c(O)c4Oc4ccc(cc4)C[C@@H]3N(C)CC2)CC[N+]1(C)C | 6

----------
target: TMC1-mediated leak conductance (Mus musculus); test: Background/leak current (IBG) inhibition by blockers, whole-cell voltage clamp of OHCs; format: cell-based; details: read-out: IC50, IBG (leak conductance); OHCs, […] Ca2+, holding −70 mV, Hill fit
Sequence (Q8R4P5 whole entry): as the sequence (Q8R4P5 whole entry) above
pIC50: −log10 of the molar value.
MEASUREMENT_LABEL: pIC50

COc1cc2c3cc1Oc1cc(ccc1O)C[C@@H]1c4c(cc(OC)c(O)c4Oc4ccc(cc4)C[C@@H]3N(C)CC2)CC[N+]1(C)C | 4.09
